Here the recorded pIC50 is given for each entry.
# system: full-length beta-Catenin (Uniprot ID P35222) (Homo sapiens (Human)) (UniProt P35222)
# Sequence (P35222 2-781 limits assumed): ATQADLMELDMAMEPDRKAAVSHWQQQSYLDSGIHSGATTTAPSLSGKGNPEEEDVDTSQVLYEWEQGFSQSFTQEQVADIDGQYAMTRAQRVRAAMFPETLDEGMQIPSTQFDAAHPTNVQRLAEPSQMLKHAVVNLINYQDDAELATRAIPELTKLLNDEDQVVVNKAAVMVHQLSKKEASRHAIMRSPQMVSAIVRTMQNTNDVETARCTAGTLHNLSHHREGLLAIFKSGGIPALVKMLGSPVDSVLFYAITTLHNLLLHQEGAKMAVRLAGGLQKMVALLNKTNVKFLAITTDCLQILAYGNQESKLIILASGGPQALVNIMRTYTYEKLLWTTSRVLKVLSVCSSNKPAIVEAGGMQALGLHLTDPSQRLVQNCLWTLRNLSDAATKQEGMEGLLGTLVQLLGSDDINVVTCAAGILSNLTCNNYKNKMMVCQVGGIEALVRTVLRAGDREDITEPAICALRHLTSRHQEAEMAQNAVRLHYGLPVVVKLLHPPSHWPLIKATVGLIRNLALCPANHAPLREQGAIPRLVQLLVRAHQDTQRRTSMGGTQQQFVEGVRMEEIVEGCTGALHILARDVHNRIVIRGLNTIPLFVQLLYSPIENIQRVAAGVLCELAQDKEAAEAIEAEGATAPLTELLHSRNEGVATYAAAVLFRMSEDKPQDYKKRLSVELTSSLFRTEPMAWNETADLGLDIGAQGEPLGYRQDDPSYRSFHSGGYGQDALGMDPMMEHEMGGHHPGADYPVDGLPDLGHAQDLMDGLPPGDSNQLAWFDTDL
# test_details: fluorescence polarization competition; 5FAM-TCF4(10-53) probe displaced from full-length beta-catenin
Starred links: 1 amine or outer side, 2 acyl side, 3 side chain; linkers in the order of their positions; H or OH if unused. Positions of bridges follow the written chain, without caps; N, C: chain ends. Non-standard residues stand in square brackets, D forms with d. Primed or numbered codes have the meaning given here. PyrS2″ = (S)-3-amino-1-((pent-4-en-1-yloxy)carbonyl)pyrrolidine-3-carboxylic acid (stapling residue), C=CCCCOC(=O)N1CC[C@@](N[*:1])(C(=O)[*:2])C1; B5(5) = 2,2-bis(4-pentenyl)glycine, 2-amino-2-(pent-4-en-1-yl)hept-6-enoic acid (stitching residue), C=CCCCC(CCCC=C)(N[*:1])C(=O)[*:2]; PyrS2 = (S)-3-amino-1-((pent-4-en-1-yloxy)carbonyl)pyrrolidine-3-carboxylic acid, C=CCCCOC(=O)N1CC[C@@](N[*:1])(C(=O)[*:2])C1; B5(22) = 2-amino-2-(pent-4-en-1-yl)hept-6-enoic acid (two alkene side chains), C=CCCCC(CCCC=C)(N[*:1])C(=O)[*:2]; Trp(1-Me) = Cn1cc(C[C@H](N)C(=O)O)c2ccccc21; Phe(2-Cl) = N[C@@H](Cc1ccccc1Cl)C(=O)O; Bta = N[C@@H](Cc1csc2ccccc12)C(=O)O; αAllylPro = C=CC[C@@]1(C(=O)O)CCCN1; tBuAla = CC(C)(C)C[C@H](N)C(=O)O; 3Thi = N[C@@H](Cc1ccsc1)C(=O)O; Nle = CCCC[C@H](N)C(=O)O
Lab note: report pIC50 as minus log10 of the concentration in molar units, number only.

Known results for binders:
- binder: "Ac-[αAllylPro]D[Nle][B5(5)]DDAAFL[PyrS2″][Phe(2-Cl)][Bta]L-NH2 (staple 1-4, 4-11; also: staple isomer of later HPLC peak) [I-1421]"
  pIC50: 6.87
- binder: "Ac-[αAllylPro]DT[B5(5)]DDAAFL[PyrS2″][3Thi][Bta]L-NH2 (staple 1-4, 4-11) [I-1415]"
  pIC50: 7.14
- binder: "Ac-[αAllylPro]D[Nle][B5(5)]DDAAFL[PyrS2″][Phe(2-Cl)][Bta]L-NH2 (staple 1-4, 4-11; also: staple isomer, earlier eluting HPLC peak) [I-1420]"
  pIC50: 6.91

Per the record, Ac-[αAllylPro]D[tBuAla][B5(5)]DDAAFL[PyrS2″][Phe(2-Cl)][Bta]L-NH2 (staple 1-4, 4-11) [I-1417] has pIC50 of 6.70

Per the record, Ac-[αAllylPro]D[tBuAla][B5(22)]DDAAFL[PyrS2][3Thi][Trp(1-Me)]S-NH2 (staple 1-4, 4-11) [I-1434] has pIC50 of 7.08
